System: Bach1 mRNA
Test: Initial screen: Bach1 mRNA knock-down in human A549 cells (96-well transfection, quantitative RT-PCR)
Format: cell-based
Conditions: Bach1 mRNA, 10 nM siNA, human A549 cells, n = 2, mean ± S.D., normalized to GAPDH and non-targeting control, 24 hrs post-transfection
[invAb] = inverted abasic unit; m = 2'-O-methyl; r = 2'-OH (RNA); f = 2'-fluoro
measured.endpoint: % KD (%)
I only need the number, in %, no unit after it.

- substance: "29959-DC: Bach1 siNA duplex, target site 1415; sense B GAGuGuccGuGGuuAGGuA TTB (SEQ 67); antisense UACcuAAccAcGGAcAcuCUU (SEQ 68) (sense GAGUGUCCGUGGUUAGGUATT; antisense UACCUAACCACGGACACUCUU; sense: DNA at AGT, 2'-fluoro at CU, [invAb] at 5' end, 3' end, backbone not given here; antisense: chemistry not given here; in key)"
  measurement: 68
- substance: "29962-DC: Bach1 siNA duplex, target site 1240; sense B cAGGGAAGAuAGuAGuGuu TTB (SEQ 73); antisense AACAcuAcuAucuucccuGUU (SEQ 74) (sense CAGGGAAGAUAGUAGUGUUTT; antisense AACACUACUAUCUUCCCUGUU; sense: DNA at AGT, 2'-fluoro at CU, [invAb] at 5' end, 3' end, backbone not given here; antisense: sugars from the 5' end rrrmffmffmffffffffmmm, backbone not given here)"
  measurement: 88
- substance: "29976-DC: Bach1 siNA duplex, target site 1585 (mouse); sense B cuGcucAAGcAAcuuGGAA TTB (SEQ 101); antisense UUCcAAGuuGcuuGAGcAGUU (SEQ 102) (sense CUGCUCAAGCAACUUGGAATT; antisense UUCCAAGUUGCUUGAGCAGUU; sense: DNA at AGT, 2'-fluoro at CU, [invAb] at 5' end, 3' end, backbone not given here; antisense: sugars from the 5' end rrrfmmmffmfffmmmfmmmm, backbone not given here)"
  measurement: 17.5

Tell me measured % KD for 29987-DC: Bach1 siNA duplex, target site 1313; sense B GGcuucuGGAGuGAcAuuu TTB (SEQ 123); antisense AAAuGucAcuccAGAAGccUU (SEQ 124) (sense GGCUUCUGGAGUGACAUUUTT; antisense AAAUGUCACUCCAGAAGCCUU; sense: DNA at AGT, 2'-fluoro at CU, [invAb] at 5' end, 3' end, backbone not given here; antisense: sugars from the 5' end rrrfmffmffffmmmmmffmm, backbone not given here) please.
16

* * *

Test system: HMOX-1 mRNA
Assay: HMOX-1 mRNA increase in response to Bach1 siNA in human A549 cells
Format: cell-based
Conditions: 24 hrs post-transfection, mean ± SD
Measured Maximum % Hmox-1 Increase in DRC of individual entries
State the answer as a number, implicitly in %.

- substance: "29957-DC (sense GCAGUUACUUCCACUCAAGTT; antisense CUUGAGUGGAAGUAACUGCUU; inverted abasic end caps, TT overhangs, modified nucleotides, further chemistry not given here)"
  unit.tag: "%"
  Maximum % Hmox-1 Increase in DRC: 213
- substance: "29947-DC (sense GGAAUCCUGCUUUCAGUUUTT; antisense AAACUGAAAGCAGGAUUCCUU; inverted abasic caps (B), 2'-modified nucleotides, further chemistry not given here)"
  unit.tag: "%"
  Maximum % Hmox-1 Increase in DRC: 187
- substance: "29964-DC (sense GAUUUGCAGGUGAUGUUAATT; antisense UUAACAUCACCUGCAAAUCUU; inverted abasic end caps, TT overhangs, modified nucleotides, further chemistry not given here)"
  unit.tag: "%"
  Maximum % Hmox-1 Increase in DRC: 240
- substance: "29961-DC (sense CUACACUGCUAAACUGAUUTT; antisense AAUCAGUUUAGCAGUGUAGUU; inverted abasic end caps, TT overhangs, modified nucleotides, further chemistry not given here)"
  unit.tag: "%"
  Maximum % Hmox-1 Increase in DRC: 262
- substance: "29956-DC (sense GUCUGAGUGUCCGUGGUUATT; antisense UAACCACGGACACUCAGACUU; inverted abasic caps (B), 2'-modified nucleotides, further chemistry not given here)"
  unit.tag: "%"
  Maximum % Hmox-1 Increase in DRC: 308

Consider now this further substance.
Enter measured Maximum % Hmox-1 Increase in DRC, system HMOX-1 mRNA, for the substance shown: 29988-DC (sense AUUUGAACCUUUAAUUCAGTT; antisense CUGAAUUAAAGGUUCAAAUUU; inverted abasic end caps, TT overhangs, modified nucleotides, further chemistry not given here)
190
